Taken from paper PMC12175168.

# ASSAY SUMMARY: physchem
# TEST CONDITIONS: buffer, pH 7.4, half-lives t 1/2 ± s(t 1/2), PPB (phosphate buffer 80 mM) pH 7.4
This listing pairs molecules with measured half-life.
MEASUREMENT TYPE: half-life

molecule="O=C1C=CC(=O)O1 [C4, maleic anhydride]" test_result="35.3 min"
molecule="CC12CC=CCC1C(=O)OC2=O (stereo not drawn) [D2, methyltetrahydrophthalic anhydride]" test_result="2.24 min"
molecule="O=C=Nc1ccccc1 [A5, phenyl isocyanate]" test_result="< 1 min"
molecule="Clc1nc(Cl)nc(Cl)n1 [E2, 2,4,6-trichloro-1,3,5-triazine]" test_result="1.14 min"
molecule="O=C=Nc1cccc2c(N=C=O)cccc12 [A2, 1,5-naphthalene diisocyanate]" test_result="3.6 min"
molecule="O=C1OC(=O)c2c(Cl)c(Cl)c(Cl)c(Cl)c21 [C3, tetrachlorophthalic anhydride]" test_result="24.3 min"
molecule="Cc1c(N=C=O)cccc1N=C=O [A3, 2,6-toluene diisocyanate]" test_result="< 1 min"
molecule="O=C=Nc1ccc(Cc2ccc(N=C=O)cc2)cc1 [A4, 4,4′-methylene diphenyl diisocyanate]" test_result="5.9 min"
molecule="O=[N+]([O-])c1ccc(S(=O)(=O)Cl)c([N+](=O)[O-])c1 [E1, 2,4-dinitrobenzenesulfonyl chloride]" test_result="< 1 min"

###

# ASSAY SUMMARY: Kinetic Gly-pNA chemoassay (second-order rate constant k Gly);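 note: Gly-pNA depletion followed over time by chromatographic peak area, with test compound in at least tenfold excess (pseudo-first-order), added from acetonitrile stock, at least three runs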
# TEST CONDITIONS: reaction with Gly-pNA, phosphate buffer 80 mM, 25 °C, nominal test compound concentration; ≥ values are minimum reactivity
MEASUREMENT TYPE: k Gly ± s(k Gly), second-order rate constant

compound="Clc1nc(Cl)nc(Cl)n1 [E2, 2,4,6-trichloro-1,3,5-triazine]" test_result="≥1424 ± 364 L mol^–1 min^–1"
compound="O=C=Nc1cccc2c(N=C=O)cccc12 [A2, 1,5-naphthalene diisocyanate]" test_result="≥24928 ± 12821 L mol^–1 min^–1"
compound=Cc1ccc(S(=O)(=O)NCl)cc1 test_result="41.9 ± 0.2 L mol^–1 min^–1"
compound="O=C=Nc1ccccc1 [A5, phenyl isocyanate]" test_result="≥2368 ± 309 L mol^–1 min^–1"
compound="O=C=NCCCCCCN=C=O [B1, hexamethylene diisocyanate]" test_result="451 ± 33 L mol^–1 min^–1"

###

# ASSAY SUMMARY: DPRA-like chemoassay with Lys-pNA (24 h percent depletion)
# TEST CONDITIONS: PPB pH 10.2, 24 h, 25 °C, 50-fold excess of test compound
MEASUREMENT TYPE: D Lys ± s(D Lys), 24 h percent depletion of Lys-pNA

molecule=O=CCCCC=O test_result="97.9 ± 0.6%"
molecule=O=[N+]([O-])c1ccc(Cl)c([N+](=O)[O-])c1 test_result="8.1 ± 0.5%"
molecule=Cc1ccc(S(=O)(=O)NCl)cc1 test_result="53.8 ± 2.9%"
molecule="O=C1OC(=O)C2CCCCC12 (centres unmarked) [D1, hexahydrophthalic anhydride]" test_result=100%
molecule="CC1(C)CC(N=C=O)CC(C)(CN=C=O)C1 (centres unmarked) [B2, isophorone diisocyanate]" test_result=100%

###

# ASSAY SUMMARY: Stability assessment of test compounds in aqueous buffers (half-lives)
# TEST CONDITIONS: aqueous phosphate buffer with acetonitrile, pH 10.2
# Experimental: To this end, the test compound was dissolved in 1 mL ACN in a glass vial. […] The depletion of the test compounds was recorded with the HPLC UV–vis instrument used for the kinetic Gly-pNA chemoassay. , Chromatographic separation of the reaction mixture was achieved using the gradient described for the Gly-pNA chemoassay previously , and an isocratic HPLC method (water/ACN 70:30, both with 0.1 vol % formic acid). […]
This listing pairs compounds with measured half-life.
MEASUREMENT TYPE: half-life

compound="O=C(O)c1ccc2c(c1)C(=O)OC2=O [C2, trimellitic anhydride]" test_result="1 min"
compound="C=CC(=O)OCC [F4, ethyl acrylate]" test_result="1350 min"
compound="O=C1OC(=O)C2CCCCC12 (centres unmarked) [D1, hexahydrophthalic anhydride]" test_result="1.2 min"
compound="O=C1OC(=O)C2C3C=CC(C3)C12 (centres unmarked) [C5, himic anhydride]" test_result="1.3 min"
compound="O=C1OC(=O)c2ccccc21 [C1, phthalic anhydride]" test_result="< 1 min"
